Below, each of the compounds is paired with its reported IC50 value.
target: hGYS2 enzyme (recombinant hGYS2/GN1 protein) (Homo sapiens (Human), UniProt P54840); assay: GYS2 coupled enzyme assay (PK/LDH); details: geometric mean of at least 2 assay runs on separate days, read-out: Avg_IC50
Sequence (P54840 whole entry): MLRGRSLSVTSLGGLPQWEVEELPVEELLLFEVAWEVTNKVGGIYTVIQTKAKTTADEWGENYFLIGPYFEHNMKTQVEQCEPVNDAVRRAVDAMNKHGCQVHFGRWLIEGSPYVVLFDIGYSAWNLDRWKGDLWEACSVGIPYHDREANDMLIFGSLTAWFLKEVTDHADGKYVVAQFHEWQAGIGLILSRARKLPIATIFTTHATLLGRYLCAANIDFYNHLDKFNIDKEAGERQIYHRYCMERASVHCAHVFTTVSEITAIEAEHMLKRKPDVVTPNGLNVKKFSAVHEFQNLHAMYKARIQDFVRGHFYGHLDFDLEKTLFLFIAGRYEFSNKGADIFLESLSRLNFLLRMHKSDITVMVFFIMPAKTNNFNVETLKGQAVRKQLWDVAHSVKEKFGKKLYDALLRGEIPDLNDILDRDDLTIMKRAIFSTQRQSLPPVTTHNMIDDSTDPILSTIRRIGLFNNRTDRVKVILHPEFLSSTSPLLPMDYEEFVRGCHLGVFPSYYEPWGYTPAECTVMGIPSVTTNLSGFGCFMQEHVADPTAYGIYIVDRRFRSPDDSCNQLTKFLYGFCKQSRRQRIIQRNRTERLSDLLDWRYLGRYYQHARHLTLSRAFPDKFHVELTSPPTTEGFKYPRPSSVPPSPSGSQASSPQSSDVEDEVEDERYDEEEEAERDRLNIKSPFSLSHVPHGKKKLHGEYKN
Sequence (P46976 whole entry partner): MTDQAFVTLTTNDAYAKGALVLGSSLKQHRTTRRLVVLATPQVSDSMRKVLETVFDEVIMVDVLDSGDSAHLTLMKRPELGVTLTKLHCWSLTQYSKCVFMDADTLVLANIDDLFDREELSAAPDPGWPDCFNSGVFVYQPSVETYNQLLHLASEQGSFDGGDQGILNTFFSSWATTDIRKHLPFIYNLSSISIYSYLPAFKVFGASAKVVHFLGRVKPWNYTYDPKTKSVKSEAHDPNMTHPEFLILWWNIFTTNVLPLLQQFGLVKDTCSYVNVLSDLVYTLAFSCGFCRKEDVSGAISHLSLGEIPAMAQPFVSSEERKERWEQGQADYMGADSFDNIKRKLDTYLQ

Worked examples follow.
CC(C)c1ccc([C@@H](NC(=O)[C@@H]2C[C@@H](F)CN2C(=O)CNC(=O)N2CC(F)(F)C2)c2ccccc2)nc1    > 100 µM
CC1(c2ccc([C@@H](NC(=O)[C@@H]3C[C@@H](F)CN3C(=O)COC(=O)N3CCN(CC4CC4)CC3)c3ccccc3)cc2F)CC1    > 91.8 µM

Turning now to a further record.
Data request: Recorded IC50 for `Cc1ncc(CC(=O)N2C[C@H](F)C[C@H]2C(=O)N[C@@H](c2ccccc2)c2ccc(C(C)C)cc2)s1` with hGYS2 enzyme (recombinant hGYS2/GN1 protein) (Homo sapiens (Human), UniProt P54840), please?
Data returned: > 100 µM

Reference source: patent US11814367B2
